The reported numbers originate from patent US20240132484A1.

Can you tell me Toxicity Data, Average, Mean for the items I'm about to list?
system: cells (nuclei count); details: average of Exp 1-3 (SMW475, SMW477, SMW478), n 9, 25 uM
The reply should be a number in %, with the unit left off.

Memo: CN(C)CCN(Cc1cocn1)Cc1cccs1 [SILCS35] , reported Toxicity Data, Average, Mean: 93.31

Memo: COC(=O)c1csc(CN(CCN(C)C)Cc2cccs2)c1 [SILCS29] , reported Toxicity Data, Average, Mean: 101.15

Memo: CCN(CC)CCN(Cc1ccccc1)Cc1ccccn1 [SILCS33] , reported Toxicity Data, Average, Mean: 85.80

Memo: COC(=O)c1csc(CN(CCN(C)C)Cc2ccsc2)c1 [SILCS31] , reported Toxicity Data, Average, Mean: 102.57

Memo: CCN(CC)CCN(Cc1ccccn1)Cc1ccc(C)o1 [SILCS36] , reported Toxicity Data, Average, Mean: 91.83

Memo: CCN(CC)CCN(Cc1cccs1)C(=O)c1cccs1 [SILCS34] , reported Toxicity Data, Average, Mean: 89.42

Memo: COC(=O)c1csc(CN(CCN(C)C)Cc2ccccc2)c1 [SILCS30] , reported Toxicity Data, Average, Mean: 104.38

----------
system: SARS2; assay type: cell-based, SARS-CoV-2; settings: Average of Exp 1 (SMW491) and Exp 2 (SMW492), n=4, 5 uM
experimental_readout: Infection Data, Average, Mean percentage infection relative to DMSO control
The number alone won't do; follow it with the unit.

Memo: COc1ccc(CNCCc2ccccc2F)c(OCC(O)CN2CCN(C)CC2)c1 (stereo not shown) [SILCS45] , reported Infection Data, Average, Mean percentage infection relative to DMSO control: −1.00%

Memo: COc1ccc(CNCCc2ccccc2F)c(OCC(O)CN2CCN(C)CC2)c1 (stereo not shown) [SILCS46] , reported Infection Data, Average, Mean percentage infection relative to DMSO control: 0.77%

Memo: COc1ccc(CNCCc2ccccc2F)c(OCC(O)CN2CCCC2)c1 (racemic) , reported Infection Data, Average, Mean percentage infection relative to DMSO control: 6.50%

Memo: COc1ccc(C2NC(=O)NC(C)=C2C(=O)NCc2ccccc2)cc1OC (stereo not shown) , reported Infection Data, Average, Mean percentage infection relative to DMSO control: 75.19%

----------
tested on: SARS2; type: cell-based, SARS-CoV-2; conditions: average of Exp 1-3 (SMW475, SMW477, SMW478), n 9, 25 uM
Given measured Infection Data, Average, Mean, output condition met if it is greater than or equal to 80% and condition not met if not.

In plain terms: is recorded Infection Data, Average, Mean at least 80% for `CN(C)CCN(Cc1cocn1)Cc1cccs1` ? condition met

In plain terms: is recorded Infection Data, Average, Mean at least 80% for `CCN(CC)CCN(Cc1ccccc1)Cc1ccccn1` ? condition not met

In plain terms: is recorded Infection Data, Average, Mean at least 80% for `CCN(CC)CCN(Cc1cccs1)C(=O)c1cccs1` ? condition met

In plain terms: is recorded Infection Data, Average, Mean at least 80% for `COC(=O)c1csc(CN(CCN(C)C)Cc2cccs2)c1` ? condition not met

In plain terms: is recorded Infection Data, Average, Mean at least 80% for `CCN(CC)CCN(Cc1ccccn1)Cc1ccc(C)o1` ? condition not met

In plain terms: is recorded Infection Data, Average, Mean at least 80% for `COC(=O)c1csc(CN(CCN(C)C)Cc2ccccc2)c1` ? condition not met

In plain terms: is recorded Infection Data, Average, Mean at least 80% for `COC(=O)c1csc(CN(CCN(C)C)Cc2ccsc2)c1` ? condition not met
